Entries and their measured LC50 at 24 h follow.
assay: Acute grazer toxicity against Thamnocephalus platyurus after 24 hrs; type: organism-based; conditions: in vivo
Number in µM, nothing else.

molecule="CC[C@H](C)[C@@H]1NC(=O)c2csc(n2)[C@@H]([C@@H](C)CC)NC(=O)c2csc(n2)CNC(=O)[C@H]2N=C1O[C@@H]2C [AERUCYCLAMIDE B]" endpointname="LC50 at 24 h" experimentalresult=33.8

Shifting focus to the molecule that follows.
For CC[C@H](C)[C@@H]1NC(=O)[C@H]2CSC(=N2)[C@@H]([C@@H](C)CC)NC(=O)c2csc(n2)CNC(=O)[C@H]2N=C1O[C@@H]2C [AERUCYCLAMIDE A] the molecule record lists LC50 at 24 h as 30.5
